- measured_on: UniProt:Q8CA95
- Sequence (Q8CA95 whole entry): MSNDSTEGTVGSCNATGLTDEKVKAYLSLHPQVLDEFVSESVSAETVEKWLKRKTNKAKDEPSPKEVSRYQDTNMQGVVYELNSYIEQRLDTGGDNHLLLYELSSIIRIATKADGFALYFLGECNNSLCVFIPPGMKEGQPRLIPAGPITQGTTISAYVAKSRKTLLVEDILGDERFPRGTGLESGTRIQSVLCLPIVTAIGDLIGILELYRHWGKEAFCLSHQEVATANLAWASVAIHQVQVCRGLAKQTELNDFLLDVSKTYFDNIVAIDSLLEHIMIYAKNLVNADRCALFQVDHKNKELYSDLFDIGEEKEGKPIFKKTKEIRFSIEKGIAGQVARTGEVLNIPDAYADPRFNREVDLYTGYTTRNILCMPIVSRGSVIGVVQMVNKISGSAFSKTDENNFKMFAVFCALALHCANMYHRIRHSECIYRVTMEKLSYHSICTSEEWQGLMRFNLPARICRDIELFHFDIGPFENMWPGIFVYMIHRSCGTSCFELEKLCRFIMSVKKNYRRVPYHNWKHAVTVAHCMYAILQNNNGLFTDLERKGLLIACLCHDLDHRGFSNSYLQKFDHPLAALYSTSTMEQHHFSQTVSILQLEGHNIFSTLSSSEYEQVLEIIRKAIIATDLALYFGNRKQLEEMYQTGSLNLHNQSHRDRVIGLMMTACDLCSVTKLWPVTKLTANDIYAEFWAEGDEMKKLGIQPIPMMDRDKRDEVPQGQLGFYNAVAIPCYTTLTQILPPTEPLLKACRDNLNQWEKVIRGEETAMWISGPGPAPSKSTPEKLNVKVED
pIC50: −log10 of the molar value.
parameter_measured: pIC50

Below, 6 compounds whose answers are already recorded.
smiles_representation: COc1cc(/C=N/NC(=O)CSc2cc(C)nc3ccccc23)cc(OC)c1OC
pIC50: 8.00
--
smiles_representation: COc1cc(/C=N/NC(=O)CSc2cc(C)nc3ccccc23)cc(F)c1OC
pIC50: 7.29
--
smiles_representation: COc1cc(/C=N/NC(=O)CSc2cccc3cccnc23)cc(OC)c1OC
pIC50: 6.72
--
smiles_representation: COc1ccc2nc(C)cc(SCC(=O)N/N=C/c3cc(OC)c(OC)c(OC)c3)c2c1
pIC50: 8.10
--
smiles_representation: COc1ccc(/C=N/NC(=O)CSc2cc(C)nc3ccccc23)c(Br)c1OC
pIC50: 5.32
--
smiles_representation: CCOc1cc(/C=N/NC(=O)CSc2cc(C)nc3ccccc23)ccc1OC
pIC50: 6.59

(I) Cc1cc(SCC(=O)N/N=C/c2ccc(OC(F)F)c(OC(F)F)c2)c2ccccc2n1
(II) COc1ccc(/C=N/NC(=O)CSc2cc(C)nc3ccccc23)cc1OC
Lower pIC50: I or II ? Please reply using the label of the selected record.
I

(P) COc1ccc(/C=N/NC(=O)CSc2cc(C)nc3ccccc23)cc1Cl
(Q) COc1cc(Br)c(/C=N/NC(=O)CSc2cc(C)nc3ccccc23)cc1OC
API: POST /compare with P and Q ; response names the item with higher pIC50. Please reply using the label of the selected record.
Q
